B1: Hairpin Ribozyme (parent)
chain: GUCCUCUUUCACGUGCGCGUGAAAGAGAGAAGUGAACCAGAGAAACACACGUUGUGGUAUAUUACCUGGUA

Variants of: B1
Assay: self-cleavage, relative activity (ratio to wild type); higher = more cleavage; co-transcriptional
endpoint.name: self-cleavage

[ask] Data request, read-out self-cleavage, for GUCCCCUUUCACGUGCGCGUGAAAGAGAGUAGUGAACCAGAGAAACACACGUUGUGGUAUAUUACCUGGUA [U5C A30U]
[reply] 0.11

[ask] Data request, read-out self-cleavage, for GUCCUCUUUCACGUGCGGGUGAAAGAGAGAAGUGAACCAGAGAAAGACACGUUGUGGUAUAUUACCUGGUA [C18G C46G]
[reply] 0.0987

[ask] Data request, read-out self-cleavage, for GUCCUCUAUCACGUGCGCGUGAAAGAGAGAAGUGAACCCGAGAAACACACGUUGUGGUAUAUUACCUGGUA [U8A A39C]
[reply] 0.396

[ask] Data request, read-out self-cleavage, for GUCCUCUUUCACGUGCGCGUGAAAGAGUGAAGUGAACCAGAGAAACACACGUUGUGGUAUAUUACCUGGGA [A28U U70G]
[reply] 0.338

[ask] Data request, read-out self-cleavage, for GUCCUCUUUCUCGUGCGGGUGAAAGAGAGAAGUGAACCAGAGAAACACACGUUGUGGUAUAUUACCUGGUA [A11U C18G]
[reply] 0.812

[ask] Data request, read-out self-cleavage, for GUCCUCUUUCACGUGCGCGUGAAAGAGAGAAGUGAACCAGAGAAACACACGAUGUGGUAUAUUACCUGGAA [U52A U70A]
[reply] 0.825

[ask] Data request, read-out self-cleavage, for GUCCUCUUUCACGUGCGCGUGAAAGAGAGAAGUGAACCAGAGAAACACAUGUUGUGGUAUAUGACCUGGUA [C50U U63G]
[reply] 0.198

[ask] Data request, read-out self-cleavage, for GUCCUCUUUCACGUGCGCGUGAAAGAGAGAAGUGGACCAGAGAAACACACGUUGUGGUUUAUUACCUGGUA [A35G A59U]
[reply] 0.229

[ask] Data request, read-out self-cleavage, for GUCCUCUUUCACGUGCGCGUGACAGAGAGAAGUGAACCAGAGAAACACACGGUGUGGUAUAUUACCUGGUA [A23C U52G]
[reply] 0.489

[ask] Data request, read-out self-cleavage, for GUCCUCUUUCAGGUGCGCGUGAAAGAGAGAAGUGAACCACAGAAACACACGUUGUGGUAUAUUACCUGGUA [C12G G40C]
[reply] 0.117

[ask] Data request, read-out self-cleavage, for GUCCUCUUUCACGUGCGCGUGAAAGAGAGAAGUGAACCAGGGAAACACACGUUGUGCUAUAUUACCUGGUA [A41G G57C]
[reply] 0.172

[ask] Data request, read-out self-cleavage, for GUCCUCUUUCACGUGCGCGUGAAAGAGAGAAGUGAGCCAGGGAAACACACGUUGUGGUAUAUUACCUGGUA [A36G A41G]
[reply] 0.536

[ask] Data request, read-out self-cleavage, for GACCUCUUUCACGUGCGCGUGAAAGAGAGAAGUGAACCAGAGAAAAACACGUUGUGGUAUAUUACCUGGUA [U2A C46A]
[reply] 0.143

[ask] Data request, read-out self-cleavage, for GUCCUCUUUCAAGUGCGCGUGAAAGAGAGAAGUGAACCAGAGAAACACACGUUGUGGUAUAUGACCUGGUA [C12A U63G]
[reply] 0.213

[ask] Data request, read-out self-cleavage, for GUCCUCUUUAACGUGCGCGUGAAAGAGAGAAGUGAACCAGAGGAACACACGUUGUGGUAUAUUACCUGGUA [C10A A43G]
[reply] 0.132

[ask] Data request, read-out self-cleavage, for GUCCUCUUUCACGUGCGCGUGAAAGAGAGAAGUGAACCCGAGAAACACACGUUGUGGUAUAUUACCAGGUA [A39C U67A]
[reply] 0.272

[ask] Data request, read-out self-cleavage, for GUCCUCUUUCACGUGCGCGUGAAAGAGAGAAGUGAACCAGAAAAACACACGUUGUGGUAUAUUACCUGGGA [G42A U70G]
[reply] 0.161

[ask] Data request, read-out self-cleavage, for GUCCUGUUUCACGUGGGCGUGAAAGAGAGAAGUGAACCAGAGAAACACACGUUGUGGUAUAUUACCUGGUA [C6G C16G]
[reply] 0.423

[ask] Data request, read-out self-cleavage, for GUCCUGUUACACGUGCGCGUGAAAGAGAGAAGUGAACCAGAGAAACACACGUUGUGGUAUAUUACCUGGUA [C6G U9A]
[reply] 0.274

[ask] Data request, read-out self-cleavage, for GUCCUCUUUCACGUGCGCGUGAAAGAAAGAAGUGAACCAGAGAAACACACGUUGUGGUAUACUACCUGGUA [G27A U62C]
[reply] 0.13

[ask] Data request, read-out self-cleavage, for GUCCUCUUUCACGUGCGCGUGAAAGAGAGAAGUGAACCAGAGAAACACACGUUGUUGGAUAUUACCUGGUA [G56U U58G]
[reply] 0.0453

[ask] Data request, read-out self-cleavage, for GUCCUCUUUCGCGUGCGCGUGAAAGAGAGAAGUGAACCAGAGAAACACACGUUGUGGUAUAUUACCUAGUA [A11G G68A]
[reply] 0.277

[ask] Data request, read-out self-cleavage, for GUCCUCUUUCACAUGCGCGUGAAAGAGAGAAGUGAACCAGAGAAACACACGUUGUGGUUUAUUACCUGGUA [G13A A59U]
[reply] 0.241

[ask] Data request, read-out self-cleavage, for GUCCUCUUUCACGUGCGCGUGAAAGAGAGAAGUCAACCAGAGAAACACACGUUGUGGUAUAUCACCUGGUA [G34C U63C]
[reply] 0.506

[ask] Data request, read-out self-cleavage, for GUCCUCUUUCACGUGCGCGUGAAAGAGAGAAGUGAACCAAAGUAACACACGUUGUGGUAUAUUACCUGGUA [G40A A43U]
[reply] 0.0963

[ask] Data request, read-out self-cleavage, for GUCCUCUUUCACGAGCGCGUGAAAGAGAGAAGUGAACCAGAGAAACACACGUUGUUGUAUAUUACCUGGUA [U14A G56U]
[reply] 0.205

[ask] Data request, read-out self-cleavage, for GUCCUCUUUCACGUGCGCAUGAAAGAGAGAAGUGGACCAGAGAAACACACGUUGUGGUAUAUUACCUGGUA [G19A A35G]
[reply] 1.01

[ask] Data request, read-out self-cleavage, for GUGCUCUUUCACGUGCGCUUGAAAGAGAGAAGUGAACCAGAGAAACACACGUUGUGGUAUAUUACCUGGUA [C3G G19U]
[reply] 0.26

[ask] Data request, read-out self-cleavage, for GUCCUCUUUCACGUGCGCGUGAAAGAGAGAAGUGAACCACAGAAACACACGUUGUGGUAUAUUACUUGGUA [G40C C66U]
[reply] 0.184

[ask] Data request, read-out self-cleavage, for GUCCUCUUUCACGUGCGCGUGAAAGAGAGAAGUGAACCACAGGAACACACGUUGUGGUAUAUUACCUGGUA [G40C A43G]
[reply] 0.138

[ask] Data request, read-out self-cleavage, for GUCCUCUUUCACGUGCGCGUGAAAGAGAGAAGCGAACCAGAGAAACACACGUUGUGGUAUAUUACGUGGUA [U33C C66G]
[reply] 0.112

[ask] Data request, read-out self-cleavage, for GUCCUCUUUCACGUGCGCGUGAAAGAGAGAAGUGAACCAGAGAAACACACGUUGUGGUAUAUUACCUGAUC [G69A A71C]
[reply] 0.912

[ask] Data request, read-out self-cleavage, for GUCCUCUUUCACGUGCGCGUGAAAGAGAGAAGUGAACCAGAGAAACACACGUUUUGGUAUAUUACCUCGUA [G54U G68C]
[reply] 0.212

[ask] Data request, read-out self-cleavage, for GUCCUCUUUCUCGUGCGCGUGAAAGAGAGAAGUGAACCAGAGAAACACACGUUGUAGUAUAUUACCUGGUA [A11U G56A]
[reply] 0.176

[ask] Data request, read-out self-cleavage, for GUCCUCUUUCACGUGCGCGUGAAAGAGAGAAGUGAACCAGAGAAACACACGUUUUGGUCUAUUACCUGGUA [G54U A59C]
[reply] 0.0613

[ask] Data request, read-out self-cleavage, for GUUCUCUUUCACGUGCGCGUGAAAGAGAGACGUGAACCAGAGAAACACACGUUGUGGUAUAUUACCUGGUA [C3U A31C]
[reply] 0.267

[ask] Data request, read-out self-cleavage, for GUCCUCUUUCACGUGCGCGUGAAAGAGAGAAGUGAACCAGAGAACCACACGAUGUGGUAUAUUACCUGGUA [A45C U52A]
[reply] 0.0823

[ask] Data request, read-out self-cleavage, for GUCCGCUUUCACGAGCGCGUGAAAGAGAGAAGUGAACCAGAGAAACACACGUUGUGGUAUAUUACCUGGUA [U5G U14A]
[reply] 0.204

[ask] Data request, read-out self-cleavage, for GUCCUCUUUCACGUGCGCGUGAAAGAGAAAAGUGAACCAGAGAAACACACGUUGUGGUAUAUUACCGGGUA [G29A U67G]
[reply] 0.0868

[ask] Data request, read-out self-cleavage, for GUCCUCUUUGACGUGCGCGUGAAAGAGAGAAGUGAACCAGAGAACCACACGUUGUGGUAUAUUACCUGGUA [C10G A45C]
[reply] 0.114

[ask] Data request, read-out self-cleavage, for GUCCUCUUGCACGUGCGCGUGAAAGAGAGAAGUGAACCAGAGAAACACACGUUGUGGUAUAUUAACUGGUA [U9G C65A]
[reply] 0.609

[ask] Data request, read-out self-cleavage, for GUCCGCUUUCACGUGCGCGUUAAAGAGAGAAGUGAACCAGAGAAACACACGUUGUGGUAUAUUACCUGGUA [U5G G21U]
[reply] 0.324

[ask] Data request, read-out self-cleavage, for GUCCUCUUUCACGUGCGCGUGAAAGAGAGAAGUGAACCAGAGAAACACAUGCUGUGGUAUAUUACCUGGUA [C50U U52C]
[reply] 0.343

[ask] Data request, read-out self-cleavage, for GUCCUCUUUCACGUGCGCGUGAAUGAGAGAAGUGAUCCAGAGAAACACACGUUGUGGUAUAUUACCUGGUA [A24U A36U]
[reply] 0.41

[ask] Data request, read-out self-cleavage, for GUCCUGUUUCACGUGCGCGUGAAAGAGAGAAGCGAACCAGAGAAACACACGUUGUGGUAUAUUACCUGGUA [C6G U33C]
[reply] 0.206

[ask] Data request, read-out self-cleavage, for GUCCUCUUUCACGUGCGCGUGAUAGAGAGAAGUGAACCAGAGAAACACACAUUGUGGUAUAUUACCUGGUA [A23U G51A]
[reply] 0.844
